Target: recombinant homotrimeric HA, A/Solomon Islands/3/06 H1N1 (Influenza A virus A/Solomon Islands/3/06 (H1N1))
Experiment: trimeric HA microarray, transfection set 4
Settings: remark: other sources report otherwise
// values below are reported Trimeric HA Binding RLU
Report as a plain number; the unit RLU is understood.

Field: example entries. Status: answers known.
TCN-534 (5249_B02) (antibody, V domains shown) VH: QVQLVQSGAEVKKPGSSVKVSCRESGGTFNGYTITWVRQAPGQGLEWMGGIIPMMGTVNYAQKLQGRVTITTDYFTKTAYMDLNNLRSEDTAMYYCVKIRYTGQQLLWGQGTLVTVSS VL: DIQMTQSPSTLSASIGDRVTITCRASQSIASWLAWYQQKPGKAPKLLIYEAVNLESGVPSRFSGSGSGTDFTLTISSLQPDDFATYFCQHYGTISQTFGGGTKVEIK = 60
TCN-523 (5248_A17) (antibody, V domains shown) VH: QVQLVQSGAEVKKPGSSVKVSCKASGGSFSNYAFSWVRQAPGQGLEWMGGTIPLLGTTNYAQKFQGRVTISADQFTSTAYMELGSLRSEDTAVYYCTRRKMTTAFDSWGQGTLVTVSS VL: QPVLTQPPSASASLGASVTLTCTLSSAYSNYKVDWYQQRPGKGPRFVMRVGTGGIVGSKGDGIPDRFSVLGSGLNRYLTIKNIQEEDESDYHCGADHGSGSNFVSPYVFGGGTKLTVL = 371
TCN-504 (3251_K17) (antibody, V domains shown) VH: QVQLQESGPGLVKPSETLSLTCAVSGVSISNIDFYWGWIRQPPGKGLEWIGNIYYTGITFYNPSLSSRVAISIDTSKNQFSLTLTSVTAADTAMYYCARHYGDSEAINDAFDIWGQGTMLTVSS VL: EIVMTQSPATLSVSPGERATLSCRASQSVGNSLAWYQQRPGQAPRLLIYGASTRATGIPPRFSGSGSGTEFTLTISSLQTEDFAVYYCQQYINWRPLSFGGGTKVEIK = 14600

API: the following record is the query input.
Lookup: Determine its reported Trimeric HA Binding RLU: TCN-535 (5246_P19) (antibody, V domains shown) VH: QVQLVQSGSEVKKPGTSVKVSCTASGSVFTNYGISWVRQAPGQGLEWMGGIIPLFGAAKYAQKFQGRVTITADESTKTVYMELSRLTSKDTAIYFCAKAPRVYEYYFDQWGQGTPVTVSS VL: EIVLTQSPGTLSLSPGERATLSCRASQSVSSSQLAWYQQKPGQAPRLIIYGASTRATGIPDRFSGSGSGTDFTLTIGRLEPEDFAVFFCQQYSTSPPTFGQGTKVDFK
Found: 836

Value source: patent US20120207760A1
